Readout Label: melting point

>>> df
                                   compound  value_reported
0  CSc1ccc(Nc2cc(-c3nnc(C(C)(C)OC(C)=O)o3)ccn2)cc1   142 to 143 °C
1                          CCc1cc(O)cc(O)c1     97 to 98 °C
2  COc1nc(NC(=O)NS(=O)(=O)c2ccccc2OC(Cl)=CCl)nc(OC)n1   199 to 200 °C
3  CCC12CCC3C4CCCC=C4CCC3C1CCC2O (stereo not drawn)   118 to 120 °C

## Input Requested field: melting point. Item: Oc1ccc2c(c1)c1c(n2CCCCCN2CCCCC2)-c2ccccc2SCC1
## Output 182 °C

## Input Requested field: melting point. Item: O=C(Nc1ccc2cc(CN3CCCC3)ccc2c1)c1ccc(-c2ccc(Cl)cc2)cc1
## Output 214 to 217 °C

## Input Requested field: melting point. Item: COc1ccc(CNc2nc(C)nc(C)c2Cl)cc1Oc1ccc2ncc([N+](=O)[O-])n2n1
## Output 273 to 274 °C

## Input Requested field: melting point. Item: CSC[C@H](N)C(=O)NC(C)=O
## Output 120 to 123 °C

## Input Requested field: melting point. Item: COC(=O)CCc1conc1-c1ccc(Cl)cc1
## Output 56 to 57 °C

## Input Requested field: melting point. Item: CC=Cc1cccc(C(=O)C=Cc2ccccc2)c1O
## Output 95 to 98 °C

## Input Requested field: melting point. Item: CS(=O)(=O)c1ccc(Oc2ccc([N+](=O)[O-])c(OCc3ccccc3)c2)cc1
## Output 142 to 143 °C

## Input Requested field: melting point. Item: Cc1nc(-c2ccc(Br)c(C)c2)no1
## Output 78 °C

## Input Requested field: melting point. Item: COc1cc(OC)c2c(=O)[nH]c(-c3ccc(N(CCO)CCO)cc3)nc2n1
## Output 277 to 279 °C

---

Readout Label: melting point

Here's what some known entries look like.
In [3]: df
Out[3]:
                                   compound  value_reported
0  CCOP(=O)(COc1ccc(-c2c3ccccc3cc3sc4ccccc4c23)cc1)OCC   129 to 130 °C
1   CC1(C)OC(=O)C(=CNc2ncnc3ccccc23)C(=O)O1   191 to 193 °C

## Input Requested field: melting point. Item: O=C(Nc1cccc2c(=O)cc(-c3nnnn3O)oc12)c1ccc(OCCCCc2ccccc2)cc1
## Output 238 to 240 °C

## Input Requested field: melting point. Item: O=C(c1cccc(C(=O)c2ccc(F)c([N+](=O)[O-])c2)c1)c1ccc(F)c([N+](=O)[O-])c1
## Output 148 to 149 °C

## Input Requested field: melting point. Item: Cc1ccc(S(=O)(=O)OCC2Cc3cccc(-c4ccc(F)c(Cl)c4)c3O2)cc1 (centres undefined)
## Output 104 to 108 °C

## Input Requested field: melting point. Item: CCCC1(C)C(=O)N(CCl)S(=O)(=O)N1C (centres undefined)
## Output 99 to 100 °C

---

Readout Label: melting point

Here's what some known entries look like.
                                   molecule  value_reported
0       O=C1Cn2c(c(Br)c3ccccc32)-c2ccccc2N1   247 to 249 °C
1  CC(=O)C1=CCC2C3CCC4CC(O)CCC4(C)C3C(=O)CC12C (stereo unspecified)          218 °C
2  CNC(=O)[C@@H]1C[C@@H](OC)CN1S(=O)(=O)c1ccc(Cl)c(COc2cccc3c2NC(C)(C)C=C3n2cncn2)c1Cl           73 °C
3  CC(=O)Oc1ccc(CN/C=C2\C(=O)NC(=O)c3ccccc32)cc1OC(C)=O   184 to 186 °C
4  CCCCCN1C(=O)C(O)(c2ccc3c(c2)OCO3)c2cccnc21 (stereo unspecified)   104 to 105 °C

## Input Requested field: melting point. Item: Nc1nc(F)nc2c1ncn2C1OC(CO)C(O)C1F (stereo unspecified)
## Output 207 to 209 °C

---

Residues, ends and D or L forms follow the SMILES beside them.
Here the recorded melting point is given for each entry.

Here's what some known entries look like.
                                   molecule  readout_label  value_reported
0  N#Cc1c(-c2ccccc2)c(-c2ccccc2)nn(CCO)c1=O  melting point   197 to 198 °C
1  NC(=O)c1c(Cl)c(-c2ccccc2)n2c1CN(S(=O)(=O)Nc1ccc(F)cc1)CC2  melting point   183 to 185 °C
2        CCOCC(=NNc1ccc(C(F)(F)F)cc1)C(=O)O  melting point     96 to 99 °C

## Input Requested field: melting point. Item: O=C(CSc1nc2ccccc2[nH]1)c1ccccc1
## Output 167 °C

## Input Requested field: melting point. Item: CCCCCCCC(=O)ON=C(c1ccccc1)c1cc(C(C)(C)C)c(O)c(C(C)(C)C)c1
## Output 76.3 to 77.2 °C

## Input Requested field: melting point. Item: COc1ccc(C(=O)Oc2ccccc2)cc1Nc1ccccc1
## Output 130 to 131 °C

## Input Requested field: melting point. Item: Cc1cccc(C2=CCN(CCCn3c(=O)[nH]c4cccc(C)c4c3=O)CC2)n1
## Output 200 to 203 °C

## Input Requested field: melting point. Item: CCSc1ccc2c(c1)CCN2C(=O)Nc1cccnc1
## Output 150 to 151 °C

## Input Requested field: melting point. Item: O=Cc1c(OCCCCC(=O)O)ccc(C(=O)O)c1O
## Output 165 to 166 °C

## Input Requested field: melting point. Item: O=C(O)c1cn(C2CC2)c2c(F)c(N3C[C@H](CF)[C@H](NC(=O)C(F)(F)F)C3)c(F)c(F)c2c1=O (relative stereo)
## Output 283 to 284 °C

## Input Requested field: melting point. Item: CCOC(=O)C1Cc2ccc(OC)c(Cl)c2O1 (stereo not given)
## Output 108 to 110 °C

## Input Requested field: melting point. Item: CC(/C=C/C1=C(c2ccc3c(c2)C(C)(C)CCC3(C)C)CCCC1)=C\C(=O)O
## Output 198 to 199 °C

## Input Requested field: melting point. Item: CCOC(=O)C1=C(C(=O)OCC)C(c2cccc3ccccc23)C(C(=O)OCC)=C(C)N1 (stereo not given)
## Output 112 °C

## Input Requested field: melting point. Item: CCCCCS(=O)c1cccc(-c2nc(=O)c3ccccc3s2)n1 (stereo not given)
## Output 146 to 147 °C

## Input Requested field: melting point. Item: COc1cc(OC)cc(-c2ccc(N(C)CCN(C)c3ccc(-c4cc(OC)cc(OC)c4)nc3)cn2)c1
## Output 139 to 141 °C

## Input Requested field: melting point. Item: CN1C(=O)CN=C(c2ccccc2F)c2cc(NC(=O)NCCCl)ccc21
## Output 240 °C

## Input Requested field: melting point. Item: C[Si](C)(C)OC(CCl)(Cn1ccnc1)c1ccc(F)cc1F (stereo not given)
## Output 88 to 89 °C

## Input Requested field: melting point. Item: CNC(=O)NCCN1CCC(Nc2nc3ccccc3n2Cc2ccc(F)cc2)C1 (stereo not given)
## Output 161 °C

## Input Requested field: melting point. Item: O=C1NC2(C(=O)CCl)C=CC1C2 (stereo not given)
## Output 86 to 88 °C

## Input Requested field: melting point. Item: COC(=O)C(Cc1ccccc1)NC(=O)C(CC(=O)O)NC(=O)C(N)CO (stereo not drawn) (H-Ser-Asp-Phe-OMe; configuration not given here)
## Output 196 to 199 °C

## Input Requested field: melting point. Item: CCOCCn1cc2c(C3C(=O)Nc4ccc(Cl)cc43)nc(NCc3ccncc3)nc2n1 (stereo not given)
## Output 298 to 299 °C

## Input Requested field: melting point. Item: Cc1oc(-c2ccccc2)nc1COc1ccccc1CO
## Output 155 to 156 °C

## Input Requested field: melting point. Item: CCCCCCCCCCCCCCn1ccc(C(=O)O)c1
## Output 66 to 67 °C

## Input Requested field: melting point. Item: Nc1nnc2c3c(c(N4CCCCC4)nn12)CCCC3
## Output 230 to 232 °C

## Input Requested field: melting point. Item: O=C1CCC(CN2C(=O)C3(COc4cc5c(cc43)OCO5)c3ccccc32)N1 (stereo not given)
## Output 121 to 130 °C

---

Here the recorded melting point is given for each entry.

Here's what some known entries look like.
In [3]: df
Out[3]:
                                   compound  readout_label  value_reported
0   CC(C)NC1=NS(=O)(=O)c2cc(C(F)(F)F)ccc2N1  melting point   287 to 289 °C
1  O=C(Nc1cccc(O)c1)O[C@@H]1CN=C(c2ccccc2)O[C@H]1c1ccccc1 (racemic)  melting point          170 °C
2  Cc1cc(C)c2cccc(OCc3c(Cl)ccc(S(=O)(=O)N4CCC[C@H]4C(=O)NCCCNC(=O)COc4ccc(C=NN)cc4)c3Cl)c2n1  melting point   124 to 128 °C

Read the next record carefully.
## Input Requested field: melting point. Item: COC(=O)[C@@H](C)Oc1ccc(Oc2cnc3ccc(Cl)cc3n2)cc1
## Output 80 °C

These data points were gathered from a melting point compilation (Tetko et al.; mined from patent text by program, amines drawn as free bases though some values may be those of a salt).
